Test: qHTS for induction of synthetic lethality in tumor cells producing 2HG: qHTS for the HT-1080-NT fibrosarcoma cell line;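 note: NT is the 2HG producing partner of a matched IDH1 knockdown line; nearly all actives have a fitted effect of over 55% in size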
Settings: HT-1080-NT fibrosarcoma viability, CellTiter-Glo ATP luminescence, 48 h; series mostly up to 46.1 µM
Description: Unbiased genomic sequencing for 22 glioma genomes found recurrent mutation of IDH1 on chromosome 2q33, a gene encoding the cytosolic isoform of IDH1 associated with the tricarboxylic acid cycle (TCA) that catalyzes the oxidative decarboxylation of isocitrate, yielding alpha-ketoglutarate and CO2 via NADP+ to NADPH conversion. […] Concentration-response curves were fitted to the signals arising from the resulting luminescence. […]
Screen size: about 360,000 compounds; about 6,000 (1.7%) were called active. About 8% were inconclusive and are not listed. Calls come from the whole dose curve; as a rule, active = well fitted cell-killing curve with a large enough effect; inconclusive = small, poorly fitted or top-dose-only effect, or effect the other way; inactive = flat fitted curve, though single readings scatter. Only a selection was taken, and actives are over-represented in it overall.
Labels: label 1 = active, label 0 = inactive

[
  {
    "COMPOUND": "O=C(O)CC1(CC(=O)Nc2cccc(C(F)(F)F)c2)CCCC1",
    "CLASS_ASSIGNMENT": "label 0"
  },
  {
    "COMPOUND": "CC(=O)c1ccc(Nc2nc(C(N)c3ccccc3)cs2)cc1 (stereo unspecified)",
    "CLASS_ASSIGNMENT": "label 0"
  },
  {
    "COMPOUND": "NC(c1ccccc1)c1csc(NC(=O)Nc2cccc(C(F)(F)F)c2)n1 (stereo unspecified)",
    "CLASS_ASSIGNMENT": "label 1"
  },
  {
    "COMPOUND": "NC(c1csc(NC(=O)Nc2cccc(C(F)(F)F)c2)n1)C1CCCCC1 (stereo unspecified)",
    "CLASS_ASSIGNMENT": "label 1"
  },
  {
    "COMPOUND": "CCCNC(=O)C1(C)CCCN(Cc2c(C)nn(-c3ccccc3)c2C)C1 (stereo unspecified)",
    "CLASS_ASSIGNMENT": "label 0"
  },
  {
    "COMPOUND": "O=C(Nc1cccc(F)c1)NC1CCCCCCC1",
    "CLASS_ASSIGNMENT": "label 0"
  }
]
